Tested on: Ishikawa (WT) endometrial tumor cells
ASSAY DETAILS: CyQUANT proliferation assay
Format: cell-based
MEASUREMENT CONTEXT: Table 11, endometrial; read-out: IC50 (μM) Ishikawa (WT)
Protocol: Madine Darby Canine Kidney epithelial cells (MDCK) stably co-expressing mGFP-tagged full length oncogenic mutant K-Ras (GFP—K-RASG12V) or mGFP-LactC2 (peptide probe for phosphatidylserine) and mCherry-tagged to the amino acids 179-189 of H-RasC181S, C184S (mCherry-CAAX, localizes primarily to endomembranes) were grown in DMEM-high glucose/sodium pyruvate/10% FBS. […] Cells were seeded in 96-well plates. […] Fluorescence measurement was used as a measure of live cell number.
EXPERIMENTAL ENDPOINT: IC50

Form: Entry = COc1ccc([C@@H](C)N(CC=C(c2ccccc2)c2ccccc2)CC=C(c2ccccc2)c2ccccc2)cc1 [Compound 7, reference compound] | System = Ishikawa (WT) endometrial tumor cells | IC50 = ____
> 30 µM

----------
SYSTEM UNDER TEST: mGFP-K-RASG12V (Homo sapiens (Human), UniProt P01116, G12V)
ASSAY DETAILS: K-Ras mislocalization assay (confocal microscopy, Manders coefficient)
Type: cell-based
Parameters: key: Manders coefficient: fraction of mCherry-CAAX co-localizing with GFP-K-Ras
MEASUREMENT CONTEXT: maximal effect, Manders coefficient; MDCK cells, 48 h
Classify as follows. Reported Emax greater than or equal to 0.7: TRUE. Reported Emax below: FALSE.

COMPOUND | SYSTEM UNDER TEST | LABEL CLASS
COc1ccc(/C(=C\CN(CCN2CCCC2)[C@H](C)c2ccc(F)cc2)c2ccc(F)cc2)cc1 | mGFP-K-RASG12V (Homo sapiens (Human), UniProt P01116, G12V) | TRUE
COc1cccc(C(=CCN(CCN2CCCC2)[C@H](C)c2ccc(F)cc2)c2cccc(OC)c2)c1 | mGFP-K-RASG12V (Homo sapiens (Human), UniProt P01116, G12V) | FALSE
COc1ccc([C@@H](C)N(CC=C(c2ccccc2)c2ccccc2)CCN2CCN(C)CC2)cc1 | mGFP-K-RASG12V (Homo sapiens (Human), UniProt P01116, G12V) | TRUE
COc1ccc([C@@H](C)N(CC=C(c2ccccc2)c2ccccc2)CCCCO)cc1 | mGFP-K-RASG12V (Homo sapiens (Human), UniProt P01116, G12V) | TRUE
Nc1nccnc1C(=O)N(CC=C(c1ccccc1)c1ccccc1)CCN1CCCC1 | mGFP-K-RASG12V (Homo sapiens (Human), UniProt P01116, G12V) | FALSE
COc1cccc([C@@H](C)N(CC=C(c2ccccc2)c2ccccc2)CCN2CCN(C)CC2)c1 | mGFP-K-RASG12V (Homo sapiens (Human), UniProt P01116, G12V) | TRUE

Identify whether the reported Emax of the following compound is 0.7 or greater: `COc1ccc([C@@H](C)N(CC=C(c2ccccc2)c2ccccc2)C(C)=O)cc1`
FALSE

----------
SYSTEM UNDER TEST: mGFP-K-RASG12V (Homo sapiens (Human), UniProt P01116, G12V)
ASSAY DETAILS: K-Ras mislocalization assay (confocal microscopy, Manders coefficient)
Type: cell-based
MEASUREMENT CONTEXT: MDCK cells, 48 h treatment; listed as 20; read-out: IC50 (μM), KRASG12V mislocalization
EXPERIMENTAL ENDPOINT: IC50 (µM)
Numbers only, in µM.

Looking for the measured IC50 of COc1ccc([C@@H](C)N(CC=C(c2ccccc2)c2ccccc2)C(=O)CN2CCN(C)CC2)cc1 [PW125] , can you help?
7.1
